test system: Plasmodium falciparum; experiment: In vitro inhibitory activity against multidrug-resistant Plasmodium falciparum W2 Indochina; assay type: functional, organism-based; details: Plasmodium falciparum
Criterion: IC50 strictly less than 20 µM. Met: Met. Not met: Not met.

> print(dat)
                                   compound    class
1   CN(C)CC1=C(CN(C)C)C2c3ccccc3C1c1ccccc12      Met
2  CN(C)C1CC2c3ccccc3C1c1ccccc12 (stereo unspecified)      Met
3  CC1C2c3ccccc3C(c3ccccc32)C1C[N+](C)(C)C.[I-] (stereo unspecified)      Met
4  CC1C2c3ccccc3C(c3ccccc32)C1C(N)=O (stereo unspecified)  Not met
5  CC1C2c3ccccc3C(c3ccccc32)C1CN(C)C (stereo unspecified)  Not met
6  CN(C)CC1C2c3ccccc3C(c3ccccc32)C1CN(C)C (stereo in doubt; 5)      Met

###

experiment: Partition coefficient (logP); assay type: physicochemical; details: octanol/water; read-out: logP
PROPERTY NAME: logP

> print(dat)
                                   compound  observed.measurement
1  CN(C)C1C2c3ccccc3C(c3ccccc32)C1C(=O)O (stereo unspecified)                   2.7
2  CC1C2c3ccccc3C(c3ccccc32)C1C(N)=O (stereo unspecified)                  2.89
3  CN(C)CCNC1CC2c3ccccc3C1c1ccccc12 (stereo unspecified)                  3.17
4  CN(C)C(=O)C1C2c3ccccc3C(c3ccccc32)C1C(=O)N(C)C (stereo in doubt; 17)                   1.7
5           CN(C)CC1=CC2c3ccccc3C1c1ccccc12                  3.68
6  CN(C)C1CC2c3ccccc3C1c1ccccc12 (stereo unspecified)                  3.67

###

test system: Plasmodium falciparum; assay: In vitro inhibitory activity against multidrug-resistant Plasmodium falciparum W2 Indochina; format: functional, organism-based; details: Plasmodium falciparum
PROPERTY NAME: IC50 (µM)

> print(dat)
                                   compound          target.system  observed.measurement
1  CC1C2c3ccccc3C(c3ccccc32)C1C(=O)Nc1cccnc1 (stereo unspecified)  Plasmodium falciparum                   164
2  c1ccc2c(c1)C1c3ccccc3C2C2CNCC12 (stereo unspecified)  Plasmodium falciparum                    10
3  CC1C2c3ccccc3C(c3ccccc32)C1C(=O)/N=C/N(C)C (stereo unspecified)  Plasmodium falciparum                    51
4  CC(CN1c2ccccc2Sc2ccccc21)N(C)C (stereo unspecified) [PROMETHAZINE]  Plasmodium falciparum                    20
5  CN(C)C(=O)C1=C(C(=O)N(C)C)C2c3ccccc3C1c1ccccc12  Plasmodium falciparum                  36.5
6  CC1C2c3ccccc3C(c3ccccc32)C1C(=O)Nc1ccncc1 (stereo unspecified)  Plasmodium falciparum                   833

###

test: Partition coefficient (logD7.0); assay type: physicochemical; conditions: octanol/water, pH 7; read-out: logD
The entries below are paired with their reported logD.
PROPERTY NAME: logD

> print(dat)
                                    molecule  observed.measurement
 1  c1ccc2c(c1)C1c3ccccc3C2C2CNCC12 (stereo not given)                     0
 2  CN(C)CC1C2c3ccccc3C(c3ccccc32)C1CO (stereo not given)                  0.96
 3  NC(=O)C1C2c3ccccc3C(c3ccccc32)C1C(N)=O (stereo not given)                  0.86
 4  CN(C)C(=O)C1C2c3ccccc3C(c3ccccc32)C1C(=O)N(C)C (stereo in doubt; 17)                   1.7
 5  CN(C)C1C2c3ccccc3C(c3ccccc32)C1C(=O)O (stereo not given)                   0.1
 6  CC1C2c3ccccc3C(c3ccccc32)C1C(=O)Nc1cccnc1 (stereo not given)                  3.85
 7  CC1C2c3ccccc3C(c3ccccc32)C1C[N+](C)(C)C.[I-] (stereo not given)                  1.32
 8  COC(=O)C1C2c3ccccc3C(c3ccccc32)C1C(=O)N(C)C (stereo not given)                  2.47
 9  CN(C)C(=O)C1=C(C(=O)N(C)C)C2c3ccccc3C1c1ccccc12                  2.15
10  CN(C)C1CC2c3ccccc3C1c1ccccc12 (stereo not given)                     2
11  CC1C2c3ccccc3C(c3ccccc32)C1C(=O)Nc1ccncc1 (stereo not given)                  3.85
12  CC(CN1c2ccccc2Sc2ccccc21)N(C)C (stereo not given)                  1.96
13  O=C(NCc1ccccc1)C1=CC2c3ccccc3C1c1ccccc12                  4.41
14  CC1C2c3ccccc3C(c3ccccc32)C1C(=O)/N=C/N(C)C (stereo not given)                  3.26
15  CNCC1CC2c3ccccc3C1c1ccccc12 (stereo not given)                  0.63
16  CN(C)CC1C2c3ccccc3C(c3ccccc32)C1CN(C)C (stereo in doubt; 5)                     0
17  CC1C2c3ccccc3C(c3ccccc32)C1C(=O)Nc1ccccn1 (stereo not given)                  4.16
18   CN(C)CC1=C(CN(C)C)C2c3ccccc3C1c1ccccc12                  1.26
19           CN(C)CC1=CC2c3ccccc3C1c1ccccc12                  2.61
20  CN(C)C=NC(=O)C1C2c3ccccc3C(c3ccccc32)C1C(=O)N=CN(C)C (stereo not given)                   1.6

From: ChEMBL document CHEMBL1135512
